Test system: EMC-BAC-2 (Non-Small Cell Lung Carcinoma)
experimentalDetails: Bliss excess, mean over the matrix (fraction); higher = more synergy
measureName: Bliss excess
Hey, just send me the number, nothing else.

// query Bliss excess value for entry CC(=O)c1c(C)c2cnc(Nc3ccc(N4CCNCC4)cn3)nc2n(C2CCCC2)c1=O [Palbociclib] + Cn1cnc2c(F)c(Nc3ccc(Br)cc3Cl)c(C(=O)NOCCO)cc21 [Selumetinib] (first compound max 10 µM, 7x7, partner max 10 µM)
0.0049

Dear colleague, I am looking for the recorded Bliss excess of the following molecule: C=CCn1c(=O)c2cnc(Nc3ccc(N4CCN(C)CC4)cc3)nc2n1-c1cccc(C(C)(C)O)n1 [AZD1775] + O=C(c1cc(Cc2n[nH]c(=O)c3ccccc23)ccc1F)N1CCN(C(=O)C2CC2)CC1 [Olaparib] (first compound max 1 µM, partner max 10 µM)
-0.0526

Recorded Bliss excess of COc1nnc2ccc(N3CCC(c4ccc(OCCN5CCN(C)C(=O)[C@H]5C)cc4)CC3)nn12 [AZD5153] + Cn1cnc2c(F)c(Nc3ccc(Br)cc3Cl)c(C(=O)NOCCO)cc21 [Selumetinib] (first compound max 1 µM, 7x7, partner max 10 µM) , please.
-0.0101

If you can, please state the reported Bliss excess value of Cn1cnc2c(F)c(Nc3ccc(Br)cc3Cl)c(C(=O)NOCCO)cc21 [Selumetinib] + C[C@@H]1COCCN1C2=NC(=NC(=C2)C3(CC3)[S@](=N)(=O)C)C4=C5C=CNC5=NC=C4 [AZD6738] (first compound max 10 µM, 7x7, partner max 10 µM) .
0.0202

###

Tested on: KLE (Endometrial Carcinoma)
experimentalDetails: Bliss excess, mean over the matrix (fraction); higher = more synergy
Collected Bliss excess values appear next to each entry.
# output: bare number, no unit

Worked cases, answers included:
[[record]]
compound = "CS(=O)(=O)CCNCc1ccc(-c2ccc3ncnc(Nc4ccc(OCc5cccc(F)c5)c(Cl)c4)c3c2)o1 [Lapatinib] + C[C@@H](Oc1cc(-c2cnn(C3CCNCC3)c2)cnc1N)c1c(Cl)ccc(F)c1Cl [Crizotinib] (first compound max 10 µM, 7x7, partner max 10 µM)"
testedtarget = "KLE (Endometrial Carcinoma)"
number = -0.0215

[[record]]
compound = "CN(CCO)CC[C@H](CSc1ccccc1)Nc1ccc(S(=O)(=O)NC(=O)c2ccc(N3CCC([C@@H](O)c4ccccc4-c4ccc(Cl)cc4)CC3)cc2)cc1S(=O)(=O)C(F)(F)F [AZD4320] + C[C@@H](Nc1cc(F)cc(F)c1)c1cc(C(=O)N(C)C)cc2c(=O)cc(N3CCOCC3)oc12 [AZD8186] (first compound max 1 µM, 7x7, partner max 3 µM)"
testedtarget = "KLE (Endometrial Carcinoma)"
number = 0.0304


For CN(CCO)CC[C@H](CSc1ccccc1)Nc1ccc(S(=O)(=O)NC(=O)c2ccc(N3CCC([C@@H](O)c4ccccc4-c4ccc(Cl)cc4)CC3)cc2)cc1S(=O)(=O)C(F)(F)F [AZD4320] + C1CN(CCC1(C(=O)N[C@@H](CCO)C2=CC=C(C=C2)Cl)N)C3=NC=NC4=C3C=CN4 [Capivasertib] (first compound max 1 µM, 7x7, partner max 3 µM) , what is its reported Bliss excess?
-0.0467

###

Test system: U-87-MG (Glioblastoma)
experimentalDetails: Bliss excess, mean over the matrix (fraction); higher = more synergy
Collected Bliss excess values appear next to each entry.
Form rule: numeric answer, no unit written next to it.

Consider the following illustrative entries.
[[record]]
compound = "C[C@@H](c1ccc2nccn2c1)n1nnc2ncc(-c3cnn(C)c3)nc21 [Savolitinib] + CC1(C)CCC(CN2CCN(c3ccc(C(=O)NS(=O)(=O)c4ccc(NCC5CCOCC5)c([N+](=O)[O-])c4)c(Oc4cnc5[nH]ccc5c4)c3)CC2)=C(c2ccc(Cl)cc2)C1 [Venetoclax] (first compound max 1 µM, 7x7, partner max 1 µM)"
measurename = "Bliss excess"
number = -0.0699

[[record]]
compound = "COc1cccc(OCCCN)c1-c1cc(Nc2cnc(C#N)cn2)n[nH]1 [Prexasertib] + CCc1c2c(nc3ccc(O)cc13)-c1cc3c(c(=O)n1C2)COC(=O)[C@]3(O)CC [SN-38] (first compound max 1 µM, 7x7, partner max 0.3 µM)"
measurename = "Bliss excess"
number = -0.092

[[record]]
compound = "CC1(C)CCC(CN2CCN(c3ccc(C(=O)NS(=O)(=O)c4ccc(NCC5CCOCC5)c([N+](=O)[O-])c4)c(Oc4cnc5[nH]ccc5c4)c3)CC2)=C(c2ccc(Cl)cc2)C1 [Venetoclax] + C=CCn1c(=O)c2cnc(Nc3ccc(N4CCN(C)CC4)cc3)nc2n1-c1cccc(C(C)(C)O)n1 [AZD1775] (first compound max 1 µM, partner max 1 µM)"
measurename = "Bliss excess"
number = -0.0456


Please examine the following record next.
So what's the measured Bliss excess for this one? CN(CCO)CC[C@H](CSc1ccccc1)Nc1ccc(S(=O)(=O)NC(=O)c2ccc(N3CCC([C@@H](O)c4ccccc4-c4ccc(Cl)cc4)CC3)cc2)cc1S(=O)(=O)C(F)(F)F [AZD4320] + CCN(CCO)CCCOc1ccc2c(Nc3cc(CC(=O)Nc4cccc(F)c4)[nH]n3)ncnc2c1 [AZD2811] (first compound max 1 µM, 7x7, partner max 1 µM)
-0.019

###

List of Bliss excess values.
Test system: KYSE-150 (Esophageal Squamous Cell Carcinoma)
experimentalDetails: Bliss excess, mean over the matrix (fraction); higher = more synergy
Respond with the number and no other words.

[[record]]
compound = "CCN(CCO)CCCOc1ccc2c(Nc3cc(CC(=O)Nc4cccc(F)c4)[nH]n3)ncnc2c1 [AZD2811] + O=C(c1cc(Cc2n[nH]c(=O)c3ccccc23)ccc1F)N1CCN(C(=O)C2CC2)CC1 [Olaparib] (first compound max 1 µM, 7x7, partner max 10 µM)"
number = 0.0291


// switching to the query compound
What value of Bliss excess has been recorded for this entry: CC1(C)CCC(CN2CCN(c3ccc(C(=O)NS(=O)(=O)c4ccc(NCC5CCOCC5)c([N+](=O)[O-])c4)c(Oc4cnc5[nH]ccc5c4)c3)CC2)=C(c2ccc(Cl)cc2)C1 [Venetoclax] + COc1cc(Nc2ncc3c(n2)-c2ccc(Cl)cc2C(c2c(F)cccc2OC)=NC3)ccc1C(=O)O [Alisertib] (first compound max 1 µM, 7x7, partner max 10 µM)
-0.0364

###

# combination Emax per record follows
System: SCC-9 (Oral Cavity Carcinoma)
experimentalDetails: combination Emax (second highest fraction inhibited in the dose matrix, 72 h); higher = more inhibition; extreme values may be limits of the assay
Kindly provide the number alone.

// solved cases for combination Emax follow
[[record]]
molecule = "CN(CCO)CC[C@H](CSc1ccccc1)Nc1ccc(S(=O)(=O)NC(=O)c2ccc(N3CCC([C@@H](O)c4ccccc4-c4ccc(Cl)cc4)CC3)cc2)cc1S(=O)(=O)C(F)(F)F [AZD4320] + C[C@@H]1COCCN1C2=NC(=NC(=C2)C3(CC3)[S@](=N)(=O)C)C4=C5C=CNC5=NC=C4 [AZD6738] (first compound max 1 µM, 7x7, partner max 10 µM)"
number = 0.466

[[record]]
molecule = "CCc1c2c(nc3ccc(O)cc13)-c1cc3c(c(=O)n1C2)COC(=O)[C@]3(O)CC [SN-38] + O=C(c1cc(Cc2n[nH]c(=O)c3ccccc23)ccc1F)N1CCN(C(=O)C2CC2)CC1 [Olaparib] (first compound max 0.3 µM, 7x7, partner max 10 µM)"
number = 0.365


Shifting focus to the molecule that follows.
Return reported combination Emax; argument: CC1(C)CCC(CN2CCN(c3ccc(C(=O)NS(=O)(=O)c4ccc(NCC5CCOCC5)c([N+](=O)[O-])c4)c(Oc4cnc5[nH]ccc5c4)c3)CC2)=C(c2ccc(Cl)cc2)C1 [Venetoclax] + CCN(CCO)CCCOc1ccc2c(Nc3cc(CC(=O)Nc4cccc(F)c4)[nH]n3)ncnc2c1 [AZD2811] (first compound max 1 µM, 7x7, partner max 1 µM)
0.25

###

Test system: KYSE-50 (Esophageal Squamous Cell Carcinoma)
experimentalDetails: Bliss excess, mean over the matrix (fraction); higher = more synergy
measureName: Bliss excess

Examples from the recorded data:
[[record]]
molecule = "CCN(CCO)CCCOc1ccc2c(Nc3cc(CC(=O)Nc4cccc(F)c4)[nH]n3)ncnc2c1 [AZD2811] + C[C@@H]1COCCN1C2=NC(=NC(=C2)C3(CC3)[S@](=N)(=O)C)C4=C5C=CNC5=NC=C4 [AZD6738] (first compound max 1 µM, 7x7, partner max 10 µM)"
result = -0.051

[[record]]
molecule = "COc1nnc2ccc(N3CCC(c4ccc(OCCN5CCN(C)C(=O)[C@H]5C)cc4)CC3)nn12 [AZD5153] + Cc1c2c(nn1C)CSCc1cc(n(C)n1)CSc1cc(c3ccccc3c1)OCCCc1c(C(=O)O)n(C)c3c-2c(Cl)ccc13 [AZD5991] (first compound max 1 µM, 7x7, partner max 1 µM)"
result = 0.0144


Could you share which Bliss excess value was measured for CC1(C)CCC(CN2CCN(c3ccc(C(=O)NS(=O)(=O)c4ccc(NCC5CCOCC5)c([N+](=O)[O-])c4)c(Oc4cnc5[nH]ccc5c4)c3)CC2)=C(c2ccc(Cl)cc2)C1 [Venetoclax] + C[C@@H]1COCCN1C2=NC(=NC(=C2)C3(CC3)[S@](=N)(=O)C)C4=C5C=CNC5=NC=C4 [AZD6738] (first compound max 1 µM, 7x7, partner max 10 µM) ?
-0.0492
